Source listed as the supplement of paper PMC9112550.

- Tested on: Escherichia coli TOP10;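 note: peptides expressed intracellularly from a pBAD plasmid library in pooled LB shake-flask culture, induced with 0.3% L-arabinose, DNA abundance read by NGS, three biological replicates, DESeq2 with apeglm shrinkage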
- assay method text: shrunken log2 fold change of peptide-encoding DNA abundance (4.5 h post-induction vs induction); higher = less antimicrobial activity (less host growth inhibition)
- condition info: time post-induction: 4.5 h; library: site-saturation at positions 5, 18, 19, 20
Kindly return criterion met if reported shrunken log2 fold change is no lower than -0.03; return criterion not met if it is lower.

> print(dat)
         construct.sequence          assayed.system  assigned.category
 1  RRIRLRPPRLPRPRPRPPMLPRP  Escherichia coli TOP10  criterion not met
 2  RRIRLRPPRLPRPRPRPECAPRP  Escherichia coli TOP10      criterion met
 3  RRIRERPPRLPRPRPRPENIPRP  Escherichia coli TOP10  criterion not met
 4  RRIRQRPPRLPRPRPRPMNWPRP  Escherichia coli TOP10  criterion not met
 5  RRIRPRPPRLPRPRPRPHWSPRP  Escherichia coli TOP10      criterion met
 6  RRIRLRPPRLPRPRPRPNRVPRP  Escherichia coli TOP10  criterion not met
 7  RRIRPRPPRLPRPRPRPVVFPRP  Escherichia coli TOP10      criterion met
 8  RRIRYRPPRLPRPRPRPTSFPRP  Escherichia coli TOP10  criterion not met
 9  RRIRWRPPRLPRPRPRPGPGPRP  Escherichia coli TOP10      criterion met
10  RRIRERPPRLPRPRPRPEGFPRP  Escherichia coli TOP10      criterion met
11  RRIRKRPPRLPRPRPRPKVTPRP  Escherichia coli TOP10      criterion met
12  RRIRKRPPRLPRPRPRPTYWPRP  Escherichia coli TOP10      criterion met
13  RRIRNRPPRLPRPRPRPFMIPRP  Escherichia coli TOP10  criterion not met
14  RRIRHRPPRLPRPRPRPSGGPRP  Escherichia coli TOP10      criterion met
15  RRIRMRPPRLPRPRPRPFGFPRP  Escherichia coli TOP10  criterion not met
